These measurements were taken from patent US20230183243A1.

# Test system: SHP-77
# Method Notes: Inhibition of proliferation of small cell lung cancer cells, CellTiter-Glo
# Assay type: cell-based
# Condition Summary: Homo sapiens, SHP77, 120 h; SHP-77, cultured for 5 days
Structures can show the parent of a compound that is named as a salt.
Would you mind telling me the reported GI50 of each entry?

Compound	Result
COc1cc(-c2nncn2C)ccc1Nc1nc(NC2CCOCC2)c2c(C(F)(F)F)c[nH]c2n1	< 100 nM
COc1cc(-c2ccnn2C)ccc1Nc1nc(NC2COC2)c2c(C#N)c[nH]c2n1	> 1000 nM
COc1cc(-c2ccnn2C)ccc1Nc1nc(NC2CCOCC2)c2c(C(F)(F)F)c[nH]c2n1	< 100 nM

Batch lookup, GI50 per entry.
1. O=C1CCCN1c1ccc(Nc2nc(NC3CCOCC3)c3c(C(F)(F)F)c[nH]c3n2)c2c1OCCO2
2. Cn1nccc1-c1ccc(Nc2nc(C3=CCCCC3)c3c(C#N)c[nH]c3n2)c2c1OCCO2
3. Cn1nccc1-c1ccc(Nc2nc(NC3COC3)c3c(C#N)c[nH]c3n2)c2c1OCCO2
4. COc1cc(-c2c(C)noc2C)ccc1Nc1nc(NC2CCOCC2)c2c(C(F)(F)F)c[nH]c2n1
5. N#Cc1c[nH]c2nc(Nc3ccc(N4CCCC4=O)c4c3OCCO4)nc(NC3CCCCCC3)c12

Key:
1: 100 to 1000 nM; 2: 100 to 1000 nM; 3: > 1000 nM; 4: < 100 nM; 5: < 100 nM

Batch of 2 compounds: report GI50 for each.
1. CC(C)S(=O)(=O)CCNc1nc(Nc2ccc(-c3ccnn3C)c3c2OCCO3)nc2[nH]cc(C#N)c12 [Example 83, trifluoroacetate]
2. COc1cc(-c2cnn(C)c2)ccc1Nc1nc(NC2CCOCC2)c2c(C#N)c[nH]c2n1

Key:
["100 to 1000 nM", "< 100 nM"]

Value sought for every listed compound: GI50.
1. N#Cc1c[nH]c2nc(Nc3ccc(N4CCCCS4(=O)=O)cc3)nc(NC3CCCC3)c12
2. Cn1nccc1-c1ccc(Nc2nc(NCC(C)(C)C)c3c(C#N)c[nH]c3n2)c2c1OCCO2
3. N#Cc1c[nH]c2nc(Nc3cccc4c3OCCO4)nc(NC3CCOCC3)c12
4. Cn1nccc1-c1ccc(Nc2nc(NCC3CCCC3)c3c(C#N)c[nH]c3n2)c2c1OCCO2 [Example 50, hydrochloride]
5. Cn1nccc1-c1ccc(Nc2nc(NC3CCCC3)c3cc[nH]c3n2)c2c1OCCO2
6. Cn1cc(-c2ccc(Nc3nc(NC4CCOC(C)(C)C4)c4c(C#N)c[nH]c4n3)c3c2OCCO3)cn1 (centres unmarked)
7. N#Cc1c[nH]c2nc(Nc3ccc(N4CCCCS4(=O)=O)cc3)nc(NC3CCOCC3)c12
8. Cn1nccc1-c1ccc(Nc2cc(NC3CCCC3)c3c(C#N)c[nH]c3n2)c2c1OCCO2

Key:
1: < 100 nM; 2: < 100 nM; 3: < 100 nM; 4: < 100 nM; 5: 100 to 1000 nM; 6: < 100 nM; 7: < 100 nM; 8: < 100 nM

---

# Test system: MDA-MB-231 cells
# Method Notes: Inhibition of proliferation of triple-negative breast cancer cells, CellTiter-Glo
# Format: cell-based
# Condition Summary: Homo sapiens, 120 h; MDA-MB-231, cultured for 5 days
Kindly supply the reported GI50 values for the records listed here.

See these solved cases before continuing.
Molecule	GI50
CCCCNc1nc(Nc2ccc(N3CCCC3=O)cc2OC)nc2[nH]cc(C#N)c12	< 100 nM
COc1cc(-c2cn(C)nn2)ccc1Nc1nc(NC2CCCCC2)c2c(C#N)c[nH]c2n1	< 100 nM
COc1cc(-c2cnn(C)c2)c(F)cc1Nc1nc(NC2CCCC2)c2c(C#N)c[nH]c2n1	< 100 nM
COc1cc(N2CCCS2(=O)=O)ccc1Nc1nc(NC2CCOCC2)c2c(C(F)(F)F)c[nH]c2n1	< 100 nM
Cn1nccc1-c1ccc(Nc2nc(NC3CCCC3)c3cc[nH]c3n2)c2c1OCCO2	100 to 1000 nM

For every record below, what is its GI50?
1. COc1cc(-c2ccnn2C)c(F)cc1Nc1nc(NC2CCCC2)c2c(C#N)c[nH]c2n1
2. COc1cc(-c2nncn2C)ccc1Nc1nc(NC2CCOC(C)(C)C2)c2c(C#N)c[nH]c2n1 (stereo not drawn)
3. COc1cc(-c2ccnn2C)ccc1Nc1nc(NCC(C)(C)C)c2c(C#N)c[nH]c2n1
4. COc1cc(Nc2nc(NC3CCOCC3)c3c(C#N)c[nH]c3n2)ccc1-c1ccnn1C
5. COc1cc(-c2ccnn2C)ccc1Nc1nc(C2CC2)c2c(C#N)c[nH]c2n1

Key:
100 to 1000 nM
< 100 nM
> 1000 nM
< 100 nM
< 100 nM

Fill in GI50 for each of the 4 molecules listed.
1. COc1cc(N2CCCS2(=O)=O)ccc1Nc1nc(NC2CCCC2)c2c(C#N)c[nH]c2n1
2. Cn1nccc1-c1ccc(Nc2nc(NC3CCCCC3)c3c(C#N)c[nH]c3n2)cc1
3. COc1cc(-c2cnn(C)c2)ccc1Nc1nc(NC2CCOCC2)c2c(C#N)c[nH]c2n1
4. COc1cc(-c2ccnn2C)ccc1Nc1nc(NC2CCCC2)c2c(C(F)(F)F)c[nH]c2n1

Key:
["< 100 nM", "< 100 nM", "< 100 nM", "100 to 1000 nM"]

Exercise: Form: Entry = CCC(C)Nc1nc(Nc2ccc(N3CCCC3=O)cc2OC)nc2[nH]cc(C#N)c12 (stereo in doubt) | System = MDA-MB-231 cells | GI50 = ____
Key: < 100 nM

---

Could you please report measured GI50 for the items listed next?
# Test system: SHP-77
# Method Notes: Inhibition of proliferation of small cell lung cancer cells, CellTiter-Glo
# Format: cell-based
# Condition Summary: Homo sapiens, SHP77, 120 h; SHP-77, cultured for 5 days

Molecule	Measured Metric	Result
Cn1nccc1-c1ccc(Nc2nc(NC3CCOCC3)c3c(C(F)(F)F)c[nH]c3n2)c2c1OCCO2	GI50	< 100 nM

For every record below, what is its GI50?
1. COCCNc1nc(Nc2ccc(-c3c(C)noc3C)cc2OC)nc2[nH]cc(C#N)c12
2. N#Cc1c[nH]c2nc(Nc3ccc(N4CCCS4(=O)=O)cc3)nc(NC3CCOCC3)c12
3. COC[C@@H](C)Nc1nc(Nc2ccc(-c3ccnn3C)cc2OC)nc2[nH]cc(C#N)c12
4. COc1cc(N2CCCCS2(=O)=O)ccc1Nc1nc(NC2CCCC2)c2c(C(F)(F)F)c[nH]c2n1
5. COc1cc(-c2ccnn2C)ccc1Nc1nc(NC2CCCC(F)(F)C2)c2c(C#N)c[nH]c2n1 (centres unmarked)
6. COc1cc(Nc2nc(NC3CCCCC3)c3c(C#N)c[nH]c3n2)ccc1-c1cnn(C)c1

Key:
< 100 nM
< 100 nM
< 100 nM
100 to 1000 nM
< 100 nM
< 100 nM

Exercise: Which measured GI50 value corresponds to COc1cc(-c2cnn(C)c2)c(F)cc1Nc1nc(NC2CCCC2)c2c(C#N)c[nH]c2n1 ?
Key: 100 to 1000 nM
